# credit: ChEMBL document CHEMBL1201862

# Tested on: IGROV-1
# run_description: NCI tumour cell line growth inhibition, 48 h
Activity calls are given as the source filed them. Cut-off read from the data, not from the text of the source: active = GI50 up to about 1.1 µM and inactive = higher.
endpoint_label: GI50

GI50 reported for this compound C=C1C(=O)OC2/C=C(\C)C(=O)CC3OC(C)(C)OC3(C)CC(OC(=O)/C(C)=C/C)C12 (stereo not given) : 14.4 µM (inactive)

Just so you know, measured GI50 for CC1(C)OC(=O)C(=C2CC(c3ccccc3)c3ccccc32)C(=O)O1 (stereo not given) came out at > 100 µM (inactive)

Per the records, this compound ( CN1CCCCC1CCN1CCCCC1 (stereo not given) ) has GI50 equal to > 100 µM (inactive)

Just so you know, measured GI50 for CCCC(O)[C@@H](O)c1ccc2c(c1O)C(=O)c1c(OC)cccc1C2=O (stereo not given in full) came out at 30.7 µM (inactive)

Input Cc1ccc(Nc2nc(C)c(C(/C=C/c3ccc4c(c3)OCO4)=N/Nc3ccc([N+](=O)[O-])cc3[N+](=O)[O-])s2)c([N+](=O)[O-])c1 . Output GI50: 62.7 µM (inactive)
